Test: MMV: MTT Cytotoxicity Assay Day 7 pi of Assay #6 (compound washed out Day 1 pi), U87-CD4-CCR5 cells, % cell death @ 5mM compound
Type: toxicity, cell-based
Details: human, u87-cd4-ccr5, 5000 µM
readout: % Cell Death
Write no unit; give the number alone.

Worked examples follow.
                                   compound       readout  experimental_result
0  COc1ccc(NC(=O)C2c3ccccc3C(=O)N(CC(C)C)C2c2cccs2)cc1 (centres undefined)  % Cell Death                   -1
1  c1ccc2cc3c(Nc4ccc(N5CCOCC5)cc4)ccnc3cc2c1  % Cell Death                   99
2  Cc1sc(NC(=O)c2ccccc2)c(C(c2cccs2)N2CCN(c3ccccc3)CC2)c1C (centres undefined)  % Cell Death                  -19
3  CCC(C)NCC(O)(c1ccc(Cl)cc1)c1ccc(Cl)cc1 (centres undefined)  % Cell Death                  -11
4             COc1ccc(C2N(C)c3ccccc3N2C)cc1  % Cell Death                   16

Looking for the measured % Cell Death of CN(C)c1ccc(-c2nc3cc(N)ccc3[nH]2)cc1 , can you help?
-1

CCOc1c(Br)cc(C2C(C(=O)OC)=CN(C)C=C2C(=O)OC)cc1OC , same question.
-1

Cl.c1ccc2c(NCCCCCCNc3c4c(nc5ccccc35)CCCC4)c3c(nc2c1)CCCC3 , same question.
-1

COc1ccc(C(O)(CCC(C)C)C(CN2CCOCC2)c2ccc(Cl)cc2)cc1.Cl (centres undefined) , same question.
48
